Test: chemical genetic growth profiling, strain panel (AID 1159580);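 note: tested at 20 µM; growth read once vehicle control cultures reached saturation at 30 °C; 1 = growth at the plate median or of vehicle wells; lower values mean less growth of the strain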
Conditions: S. cerevisiae deletion strains, growth OD, locus YMR231W, strain pep5, hits give low values
In all, about 5,500 compounds went through this assay and about 2,000 (36%) were called active. Roughly 18% stayed inconclusive and do not appear here. The list shows a part of the results.
The following molecules are listed with their measured normalized growth values.
reported metric: normalized growth

In [3]: df
Out[3]:
            structure_smiles_string  value_reported
0       CC1=NCCc2c1[nH]c1cc(O)ccc21           0.991
1                   NCC(=O)CCC(=O)O           0.972
2  Nc1nc(N)c2nc(-c3ccccc3)c(N)nc2n1           0.997
